Cited source for all entries: patent US20120040474A1

Attribute: Relative Enhancement (relative to wild type)
Target: T1, denatured glycoprotein RNase B (UniProt P61823 27-150, a single N-glycosylation site predominantly occupied by high mannose oligosaccharides; protein denatured)
T1 construct: Recognition by the PNGase F mutants and by Con A goes through the N-linked glycan on the protein; also called denatured RNase B; dRNAse B
T1 sequence (looked up): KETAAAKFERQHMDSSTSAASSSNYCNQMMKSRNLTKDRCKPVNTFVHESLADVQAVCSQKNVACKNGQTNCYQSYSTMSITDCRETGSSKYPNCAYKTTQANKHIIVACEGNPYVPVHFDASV
Assay: SPR Kd against wild type Km
Provide the reading as a plain figure in fold.

{"binder": "PNGase F D60N mutant (enzyme) APADNTVNIKTFDKVKNAFGDGLSQSAEGTFTFPADVTTVKTIKMFIKNECPNKTCDEWNRYANVYVKNKTTGEWYEIGRFITPYWVGTEKLPRGLEIDVTDFKSLLSGNTELKIYTETWLAKGREYSVDFDIVYGTPDYKYSAVVPVIQYNKSSIDGVPYGKAHTLGLKKNIQLPTNTEKAYLRTTISGWGHAKPYDAGSRGCAEWCFRTHTIAINNANTFQHQLGALGCSANPINNQSPGNWAPDRAGWCPGMAVPTRIDVLNNSLTGSTFSYEYKFQSWTNNGTNGDAFYAISSFVIAKSNTPISAPVVTN", "observed_value": 290}

Shift focus to the following entry.
In one line, give reported Relative Enhancement (relative to wild type) of the entry PNGase F D60A/E206R mutant (enzyme) APADNTVNIKTFDKVKNAFGDGLSQSAEGTFTFPADVTTVKTIKMFIKNECPNKTCDEWARYANVYVKNKTTGEWYEIGRFITPYWVGTEKLPRGLEIDVTDFKSLLSGNTELKIYTETWLAKGREYSVDFDIVYGTPDYKYSAVVPVIQYNKSSIDGVPYGKAHTLGLKKNIQLPTNTEKAYLRTTISGWGHAKPYDAGSRGCARWCFRTHTIAINNANTFQHQLGALGCSANPINNQSPGNWAPDRAGWCPGMAVPTRIDVLNNSLTGSTFSYEYKFQSWTNNGTNGDAFYAISSFVIAKSNTPISAPVVTN .
240
